# test protocol: in vitro
# details: dog, MDCK-MDR1
# label = label 1 if Papp B→A >= 50 ×10⁻⁶ cm/s else label 0

Solved entries (count: 3):
molecule: Cc1nn(-c2ccccc2)c(C)c1/C=C/c1ccc2ccccc2[n+]1C.[I-]
label value: label 0

molecule: Cc1ccc2c(ccc(/C=C/c3c(C)nn(-c4ccccc4)c3C)[n+]2C)c1.[I-]
label value: label 0

molecule: Cc1c(/C=C/c2ccc3ccccc3[n+]2C)cnn1-c1ccccc1.[I-]
label value: label 0

Now for a further compound.
Query: Say whether Cc1cc(/C=C/c2ccc3ccccc3[n+]2C)c(C)n1-c1ccccc1.[I-] shows Papp B→A of 50 ×10⁻⁶ cm/s or more.
Response: label 1

* * *

Items are presented alongside their recorded half-life at 1 µM.
# test protocol: Gerbil liver microsome stability assay
# Assay type: in vitro ADME
# details: pH 7.4; 1 µM compound, 0.5 mg/mL microsomes; read-out: Gerbil Liver Microsome T1/2
Please respond with the number in min and leave the unit unwritten.

Observe how each entry below is paired with its result.
molecule: Cc1ccc2c(ccc(/C=C/c3c(C)nn(-c4ccccc4)c3C)[n+]2C)c1.[I-]
result unit: min
half-life at 1 µM: 1480
--
molecule: Cc1nn(-c2ccccc2)c(C)c1/C=C/c1ccc2ccccc2[n+]1C.[I-]
result unit: min
half-life at 1 µM: 7.7
--
molecule: Cc1c(/C=C/c2ccc3ccccc3[n+]2C)cnn1-c1ccccc1.[I-]
result unit: min
half-life at 1 µM: 4.9
--
molecule: Cc1ccc2c(ccc(/C=C/c3cc(C)n(-c4ccccc4)c3C)[n+]2C)c1.[I-]
result unit: min
half-life at 1 µM: 2.6

Next:
Query: Given the entry Cc1cc(/C=C/c2ccc3ccccc3[n+]2C)c(C)n1-c1ccccc1.[I-] , report its measured half-life at 1 µM.
Response: 2.3

* * *

# test protocol: Gerbil liver microsome stability assay
# Format: in vitro ADME
# details: gerbil liver microsomes
Entries whose CLint is below 200 µL/min/mg Protein take criterion met; entries at or above 200 µL/min/mg Protein take criterion not met.

Solved entries (count: 4):
molecule: Cc1ccc2c(ccc(/C=C/c3c(C)nn(-c4ccccc4)c3C)[n+]2C)c1.[I-]
label value: criterion met

molecule: Cc1c(/C=C/c2ccc3ccccc3[n+]2C)cnn1-c1ccccc1.[I-]
label value: criterion not met

molecule: Cc1ccc2c(ccc(/C=C/c3cc(C)n(-c4ccccc4)c3C)[n+]2C)c1.[I-]
label value: criterion not met

molecule: Cc1cc(/C=C/c2ccc3ccccc3[n+]2C)c(C)n1-c1ccccc1.[I-]
label value: criterion not met

Now for a further molecule.
Query: Given the entry Cc1nn(-c2ccccc2)c(C)c1/C=C/c1ccc2ccccc2[n+]1C.[I-] , would its reported CLint be below 200 µL/min/mg Protein?
Response: criterion met

* * *

# System: Brugia pahangi adult females
# test protocol: In vitro motility assay with adult female Brugia pahangi (Worminator)
# details: 1 µM, Day 3; 1 µM
Items are presented alongside their recorded Brugia Adult Females Inhibition of Motility Day 3 @ 1 µM.
Please respond with the number in % and leave the unit unwritten.

compound: Cc1ccc2c(ccc(/C=C/c3cc(C)n(-c4ccccc4)c3C)[n+]2C)c1.[I-] [Analog 02]
result unit: %
assay value: 83

compound: Cc1nn(-c2ccccc2)c(C)c1/C=C/c1ccc2ccccc2[n+]1C.[I-] [Analog 05]
result unit: %
assay value: 81

compound: Cc1cc(/C=C/c2ccc3ccccc3[n+]2C)c(C)n1-c1ccccc1.[I-] [Analog 01]
result unit: %
assay value: 99

compound: Cc1ccc2c(ccc(/C=C/c3c(C)nn(-c4ccccc4)c3C)[n+]2C)c1.[I-] [Analog 06]
result unit: %
assay value: 71

Next:
Query: Given the entry Cc1cc(/C=C/c2ccc3cc(N(C)C)ccc3[n+]2C)c(C)n1-c1ccccc1 [PVP, pyrvinium pamoate, reference compound] , report its measured Brugia Adult Females Inhibition of Motility Day 3 @ 1 µM.
Response: 82

Hello, the source for this data is paper PMC8880385, in case you need it.
